Here, each record is paired with measured pIC50 data.
SYSTEM UNDER TEST: Met (Homo sapiens, UniProt P08581)
Sequence (P08581 956-1390): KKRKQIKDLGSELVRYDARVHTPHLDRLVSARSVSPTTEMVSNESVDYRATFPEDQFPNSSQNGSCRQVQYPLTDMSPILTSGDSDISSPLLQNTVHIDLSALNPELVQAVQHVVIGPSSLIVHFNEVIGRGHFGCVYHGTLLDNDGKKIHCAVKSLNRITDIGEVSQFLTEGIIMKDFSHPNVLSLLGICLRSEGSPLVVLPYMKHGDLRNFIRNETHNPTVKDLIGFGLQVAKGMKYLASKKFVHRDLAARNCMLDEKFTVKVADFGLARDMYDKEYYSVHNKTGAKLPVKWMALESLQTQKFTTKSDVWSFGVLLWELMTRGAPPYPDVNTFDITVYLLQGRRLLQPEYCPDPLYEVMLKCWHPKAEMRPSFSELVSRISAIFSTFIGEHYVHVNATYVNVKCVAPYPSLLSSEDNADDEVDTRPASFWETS
ASSAY PROTOCOL: Human MET kinase assay (HTRF KinEase)
Type: biochemical
Set-up: Human MET (residues 956-1390; CarnaBio, 0.1 ng/ well); purchased CarnaBio
RUN PARAMETERS: Table 2 Biological Activities, ATP at Km (3.0 μM), read-out: c-Met IC50
pIC50: −log10 of the molar value.

Some solved cases for reference:
COc1cnc2c(Oc3ccc(NC(=O)c4c(C)n(C)cc(-c5ccc(F)cn5)c4=O)cc3F)ccnc2c1; 6.00 to 6.52
COc1cc2nccc(Oc3ccc(NC(=O)c4ccc(C)n(-c5ccc(F)cn5)c4=O)cc3)c2nc1OC; ≥ 7.00
Cc1ccc(C(=O)Nc2ccc(Oc3ccnc4cnc(Cl)cc34)c(F)c2)c(=O)n1-c1ccc(F)cn1 [Compound 54A]; 6.52 to 7.00
COc1ccc2nccc(Oc3ccc(NC(=O)c4ccc(C)n(-c5ccc(F)cn5)c4=O)cc3F)c2n1; 6.52 to 7.00

-- ask Give pIC50 for `COc1cc2nccc(Oc3ccc(NC(=O)c4c(C)n(C)cc(-c5ccc(F)cn5)c4=O)cc3)c2nc1OC` tested on Met (Homo sapiens, UniProt P08581).
-- reply 6.00 to 6.52

-- ask Give pIC50 for `COc1ccc2nccc(Oc3ccc(NC(=O)c4ccc(C)n(-c5ncc(F)cc5C)c4=O)cc3F)c2n1` tested on Met (Homo sapiens, UniProt P08581).
-- reply ≥ 7.00

-- ask Give pIC50 for `COCCOc1cc2nccc(Oc3ccc(NC(=O)c4ccc(C)n(-c5ccc(F)cn5)c4=O)cc3F)c2nc1OC` tested on Met (Homo sapiens, UniProt P08581).
-- reply ≥ 7.00
